system_under_test: L. monocytogenes AgrC (Listeria monocytogenes serovar 1/2a, UniProt Q8YAR5)
Sequence (Q8YAR5 entry or part of it): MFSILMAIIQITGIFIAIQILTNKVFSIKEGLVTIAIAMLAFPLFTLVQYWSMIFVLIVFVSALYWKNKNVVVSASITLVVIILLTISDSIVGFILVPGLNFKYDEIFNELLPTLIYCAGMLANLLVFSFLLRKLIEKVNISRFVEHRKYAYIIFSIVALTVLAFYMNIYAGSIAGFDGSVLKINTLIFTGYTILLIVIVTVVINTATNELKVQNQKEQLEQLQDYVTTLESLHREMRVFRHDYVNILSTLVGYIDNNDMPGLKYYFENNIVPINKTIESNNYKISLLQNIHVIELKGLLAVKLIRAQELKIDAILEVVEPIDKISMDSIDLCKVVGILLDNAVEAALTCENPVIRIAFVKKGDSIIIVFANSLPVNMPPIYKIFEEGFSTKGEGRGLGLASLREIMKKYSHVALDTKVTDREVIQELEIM
protocol: Fluorescence (agr-GFP) reporter agonism assay, ΔagrD reporter strain
Assay type: cell-based
reported_conditions: read-out: Max Activation
Where a SMILES comes first, the peptide text is derived from it. Bridges are numbered along the chain shown (N, C = ends).
# Emax per record follows
Respond with the bare value in %.

Consider the worked cases shown below.
| compound | Emax, % |
| --- | --- |
| CSCC[C@@H]1NC(=O)[C@H](Cc2ccccc2)NC(=O)[C@@H](NC(C)=O)CSC(=O)[C@H](C(C)C)NC(=O)[C@H](Cc2ccccc2)NC1=O [Ac-5-mer, Ac-(C-F-M-F-V)] (Ac-CFMFV; thioester 1-C) | 75.3 |
| CC(C)C[C@@H]1NC(=O)[C@H](C(C)C)NC(=O)[C@@H](NC(=O)[C@@H](N)CO)CSC(=O)[C@H](CC(C)C)NC(=O)[C@H](Cc2c[nH]cn2)NC1=O [L. weihenstephanensis AIP, S-(C-V-L-H-L), reference compound] (H-SCVLHL; thioester 2-C; N-terminus assumed) | 11.2 |

Data request: Form field: reported Emax of CC[C@H](C)[C@@H]1NC(=O)[C@H](CC(C)C)NC(=O)[C@H](Cc2ccccc2)NC(=O)[C@@H](NC(=O)[C@@H](N)CO)CSC(=O)[C@H](Cc2ccccc2)NC1=O [L. newyorkensis AIP, S-(C-F-L-I-F), reference compound] (H-SCFLIF; thioester 2-C; N-terminus assumed)
Data returned: 23.6

Data request: Form field: reported Emax of CSCC[C@@H]1NC(=O)[C@H](Cc2ccccc2)NC(=O)[C@@H](NC(=O)[C@H](C)NC(=O)[C@H](CCCCN)NC(=O)[C@H](CO)NC(=O)[C@H](CCSC)NC(=O)[C@@H](N)CO)CSC(=O)[C@H](C(C)C)NC(=O)[C@H](Cc2ccccc2)NC1=O [Compound 10-mer, S-M-S-K-A-(C-F-M-F-V)] (H-SMSKACFMFV; thioester 6-C; N-terminus assumed)
Data returned: 110

====

system_under_test: L. monocytogenes AgrC (Listeria monocytogenes serovar 1/2a, UniProt Q8YAR5)
protocol: Fluorescence (agr-GFP) reporter agonism assay, ΔagrD reporter strain
Format: cell-based
reported_conditions: read-out: Max Activation Observed
Protocol: Construction of Listeria agr Reporter Strains. […] Fluorescence reporter assay protocol. […] Fluorescence of GFP (excitation at 500 nm, emission at 540 nm) and OD600 of each well was measured using BioTek Synergy 2 plate reader. Measurements were processed by subtracting background fluorescence (BHI media), correcting by OD600, and the normalizing using the 1 μM AIP or the DMSO control for the agonism and antagonism assays, respectively. […]
Where a SMILES comes first, the peptide text is derived from it. Bridges are numbered along the chain shown (N, C = ends). [ ]: non-standard residue; d: D form.
# Emax per record follows
Respond with the bare value in %.

Consider the worked cases shown below.
| compound | Emax [%] |
| --- | --- |
| CSCC[C@@H]1NC(=O)[C@H](Cc2ccccc2)NC(=O)[C@H](NC(=O)[C@H](C)NC(=O)[C@@H](N)CCCCN)CSC(=O)[C@H](C(C)C)NC(=O)[C@H](Cc2ccccc2)NC1=O [7-mer C3dC, K-A-(dC-F-M-F-V)] (H-KA[dC]FMFV; thioester 3-C; N-terminus assumed) | 7.08 |
| CSCC[C@@H]1NC(=O)[C@H](Cc2ccccc2)NC(=O)[C@H](NC(=O)[C@H](C)N)CSC(=O)[C@H](C(C)C)NC(=O)[C@H](Cc2ccccc2)NC1=O [AIP C2dC, A-(dC-F-M-F-V)] (H-A[dC]FMFV; thioester 2-C; N-terminus assumed) | 41 |
| CSCC[C@H]1NC(=O)[C@H](Cc2ccccc2)NC(=O)[C@H](NC(=O)[C@H](C)N)CSC(=O)[C@H](C(C)C)NC(=O)[C@H](Cc2ccccc2)NC1=O [AIP C2dC/M4dM, A-(dC-F-dM-F-V)] (H-A[dC]F[dM]FV; thioester 2-C; N-terminus assumed) | 35.7 |
| CSCC[C@@H]1NC(=O)[C@H](Cc2ccccc2)NC(=O)[C@@H](NC(=O)[C@H](C)N)CSC(=O)[C@H](C)NC(=O)[C@H](Cc2ccccc2)NC1=O [AIP V6A, A-(C-F-M-F-A)] (H-ACFMFA; thioester 2-C; N-terminus assumed) | 69 |
| CSCC[C@H]1NC(=O)[C@H](Cc2ccccc2)NC(=O)[C@@H](NC(=O)[C@H](C)N)CSC(=O)[C@H](C(C)C)NC(=O)[C@H](Cc2ccccc2)NC1=O [AIP M4dM, A-(C-F-dM-F-V)] (H-ACF[dM]FV; thioester 2-C; N-terminus assumed) | 111 |

Data request: Entry CC(C)[C@@H]1NC(=O)[C@H](Cc2ccccc2)NC(=O)[C@H](C)NC(=O)[C@H](Cc2ccccc2)NC(=O)[C@@H](NC(=O)[C@H](C)N)CSC1=O [AIP M4A, A-(C-F-A-F-V)] (H-ACFAFV; thioester 2-C; N-terminus assumed) , system L. monocytogenes AgrC (Listeria monocytogenes serovar 1/2a, UniProt Q8YAR5): what Emax was measured?
Data returned: 53.5

Data request: Entry CSCC[C@@H]1NC(=O)[C@H](Cc2ccccc2)NC(=O)[C@@H](NC(=O)[C@H](C)N)CSC(=O)[C@@H](C(C)C)NC(=O)[C@H](Cc2ccccc2)NC1=O [AIP V6dV, A-(C-F-M-F-dV)] (H-ACFMF[dV]; thioester 2-C; N-terminus assumed) , system L. monocytogenes AgrC (Listeria monocytogenes serovar 1/2a, UniProt Q8YAR5): what Emax was measured?
Data returned: 72.9

Data request: Entry CSCC[C@@H]1NC(=O)[C@H](Cc2ccccc2)NC(=O)[C@@H](NC(=O)[C@H](C)N)CSC(=O)[C@H](C(C)C)NC(=O)[C@@H](Cc2ccccc2)NC1=O [AIP F5dF, A-(C-F-M-dF-V)] (H-ACFM[dF]V; thioester 2-C; N-terminus assumed) , system L. monocytogenes AgrC (Listeria monocytogenes serovar 1/2a, UniProt Q8YAR5): what Emax was measured?
Data returned: 72.3

Data request: Entry CSCC[C@@H]1NC(=O)[C@H](Cc2ccccc2)NC(=O)[C@@H](NC(=O)[C@H](C)N)CSC(=O)[C@H](C(C)C)NC(=O)[C@H](Cc2c[nH]cn2)NC1=O [AIP F5H, A-(C-F-M-H-V)] (H-ACFMHV; thioester 2-C; N-terminus assumed) , system L. monocytogenes AgrC (Listeria monocytogenes serovar 1/2a, UniProt Q8YAR5): what Emax was measured?
Data returned: 7.13

====

# Emax per record follows
system_under_test: L. monocytogenes AgrC (Listeria monocytogenes serovar 1/2a, UniProt Q8YAR5)
protocol: Fluorescence (agr-GFP) reporter agonism assay, ΔagrD reporter strain
Assay type: cell-based
Set-up: dose or concentration left out as unconfirmed
reported_conditions: read-out: Max Activation Observed
Where a SMILES comes first, the peptide text is derived from it. Bridges are numbered along the chain shown (N, C = ends). [ ]: non-standard residue; d: D form.
Please answer using a numeric value trailed by its unit.

Consider the worked cases shown below.
| compound | Emax |
| --- | --- |
| CSCC[C@@H]1NC(=O)[C@H](Cc2ccccc2)NC(=O)[C@@H](NC(=O)[C@@H](N)CCCCN)CSC(=O)[C@H](C(C)C)NC(=O)[C@H](Cc2ccccc2)NC1=O [AIP A1K, K-(C-F-M-F-V)] (H-KCFMFV; thioester 2-C; N-terminus assumed) | 80% |
| CC(C)[C@@H]1NC(=O)[C@H](Cc2ccccc2)NC(=O)[C@@H](C)NC(=O)[C@H](Cc2ccccc2)NC(=O)[C@@H](NC(=O)[C@H](C)N)CSC1=O [AIP M4dA, A-(C-F-dA-F-V)] (H-ACF[dA]FV; thioester 2-C; N-terminus assumed) | 82% |
| CSCC[C@H]1NC(=O)[C@H](Cc2ccccc2)NC(=O)[C@@H](NC(=O)[C@@H](N)CCCCN)CSC(=O)[C@H](C(C)C)NC(=O)[C@H](Cc2ccccc2)NC1=O [AIP A1K/M4dM, K-(C-F-dM-F-V)] (H-KCF[dM]FV; thioester 2-C; N-terminus assumed) | 74.1% |
| CSCC[C@@H]1NC(=O)[C@H](CC(C)C)NC(=O)[C@@H](NC(=O)[C@H](C)N)CSC(=O)[C@H](C(C)C)NC(=O)[C@H](Cc2ccccc2)NC1=O [AIP F3L, A-(C-L-M-F-V)] (H-ACLMFV; thioester 2-C; N-terminus assumed) | 37.6% |
| CSCC[C@H]1NC(=O)[C@H](Cc2ccccc2)NC(=O)[C@@H](NC(=O)[C@H](C)NC(=O)[C@@H](N)CCCCN)CSC(=O)[C@H](C(C)C)NC(=O)[C@H](Cc2ccccc2)NC1=O [7-mer M5dM, K-A-(C-F-dM-F-V)] (H-KACF[dM]FV; thioester 3-C; N-terminus assumed) | 71.9% |
| CSCC[C@@H]1NC(=O)[C@H](Cc2ccccc2)NC(=O)[C@@H](NC(=O)[C@H](C)N)CSC(=O)[C@H](C(C)C)NC(=O)[C@H](Cc2c[nH]c3ccccc23)NC1=O [AIP F5W, A-(C-F-M-W-V)] (H-ACFMWV; thioester 2-C; N-terminus assumed) | 85.8% |
| CSCC[C@@H]1NC(=O)[C@H](Cc2ccccc2)NC(=O)[C@@H](NC(=O)[C@@H]2CCCN2)CSC(=O)[C@H](C(C)C)NC(=O)[C@H](Cc2ccccc2)NC1=O [AIP A1P, P-(C-F-M-F-V)] (H-PCFMFV; thioester 2-C; N-terminus assumed) | 76.8% |
| CSCC[C@@H]1NC(=O)[C@H](Cc2ccccc2)NC(=O)[C@@H](NC(=O)[C@H](CCCCN)NC(=O)[C@@H](N)CCCCN)CSC(=O)[C@H](C(C)C)NC(=O)[C@H](Cc2ccccc2)NC1=O [7-mer A2K, K-K-(C-F-M-F-V)] (H-KKCFMFV; thioester 3-C; N-terminus assumed) | 64.8% |
| CSCC[C@@H]1NC(=O)[C@H](Cc2c[nH]c3ccccc23)NC(=O)[C@@H](NC(=O)[C@H](C)N)CSC(=O)[C@H](C(C)C)NC(=O)[C@H](Cc2ccccc2)NC1=O [AIP F3W, A-(C-W-M-F-V)] (H-ACWMFV; thioester 2-C; N-terminus assumed) | 60.6% |

Pending compound:
Data request: Form field: reported Emax of CSCC[C@@H]1NC(=O)[C@@H](Cc2ccccc2)NC(=O)[C@@H](NC(=O)[C@H](C)N)CSC(=O)[C@H](C(C)C)NC(=O)[C@H](Cc2ccccc2)NC1=O [AIP F3dF, A-(C-dF-M-F-V)] (H-AC[dF]MFV; thioester 2-C; N-terminus assumed)
Data returned: 6.63%

# credit: patent US12116424B2
